- experimental-target: Neu5Ac(a2-3)Gal(b1-4)[Fuc(a1-3)]GlcNAc(b1-3)Gal(b1-4)GlcNAc
- experiment: glycan array binding signal (z-score within array); higher = stronger binding
- measurement-parameters: glycan notation: IUPAC condensed, linker removed
Only a selection was taken, and the strongest signals are over-represented in it overall.

[
  {
    "binder": "MFG-E8 (Homo sapiens), Q08431 (protein) MPRPRLLAALCGALLCAPSLLVALDICSKNPCHNGGLCEEISQEVRGDVFPSYTCTCLKGYAGNHCETKCVEPLGLENGNIANSQIAASSVRVTFLGLQHWVPELARLNRAGMVNAWTPSSNDDNPWIQVNLLRRMWVTGVVTQGASRLASHEYLKAFKVAYSLNGHEFDFIHDVNKKHKEFVGNWNKNAVHVNLFETPVEAQYVRLYPTSCHTACTLRFELLGCELNGCANPLGLKNNSIPDKQITASSSYKTWGLHLFSWNPSYARLDKQGNFNAWVAGSYGNDQWLQVDLGSSKEVTGIITQGARNFGSVQFVASYKVAYSNDSANWTEYQDPRTGSSKIFPGNWDNHSHKKNLFETPILARYVRILPVAWHNRIALRLELLGC",
    "glycan array binding signal (z-score)": -0.126
  }
]
